Measured values drawn from patent US9701660B2 for this set.

procedure.summary: Aqueous solubility in PBS (HPLC)
Assay type: physicochemical
condition.set: comparison
reported.property: solubility in words, compared to compound 1

INSERT INTO measurements (sample_smiles, endpoint_value) VALUES
  ('FC(F)(CNc1cccc(NCCc2ccccn2)n1)c1ccc2c(n1)NCCC2', 'worse'),
  ('FC(F)(CNc1cccc(NCC(F)(F)c2ccc3c(n2)NCCC3)n1)c1ccccn1', 'worse'),
  ('FC(F)(CNc1cccc(NCCc2ccc3c(n2)NCCC3)n1)c1ccccn1', 'worse'),
  ('c1ccc(CCNc2cccc(NCCc3ccc4c(n3)NCCC4)n2)nc1', 'worse');
